Tested on: MOLT-4 leukemia
ASSAY INFO: NCI tumour cell line growth inhibition, 48 h

{"COMPOUND": "COC(=O)C1(Cc2ccc3c(c2)CCC3)Cc2ccccc2C1O (stereo not drawn)", "TGI": "35.5 µM"}
{"COMPOUND": "COc1cc(C(=O)c2c(-c3ccccc3)oc3c(OC)cccc23)cc(OC)c1OC", "TGI": "> 100 µM"}
{"COMPOUND": "CC(=O)[CH-]C(=O)c1ccccc1.CC(=O)[CH-]C(=O)c1ccccc1.CC[O-].CC[O-].[Hf+4]", "TGI": "> 100 µM"}

###

Test system: SN12C renal
ASSAY INFO: NCI tumour cell line growth inhibition, 48 h

{"COMPOUND": "COc1ccc2c(c1)c(CC(=O)[Se]C)c(C)n2C(=O)c1ccc(Cl)cc1", "GI50": "> 490 nM"}
{"COMPOUND": "Cc1cc(NCCCN(C)C)c2ccc3c(ccc4c(NCCCN(C)C)cc(C)nc43)c2n1", "GI50": "157 nM"}
{"COMPOUND": "COc1ccc(C/C(C)=C(/c2ccc(OCCN3CCCCC3)cc2)c2ccc(OC(=O)NCc3ccccc3)cc2)cc1", "GI50": "428 nM"}
{"COMPOUND": "C#CC#CC#CC#CC#CC#CC#CC#CCC1OCC(COC(=O)O[C@@H](C(=O)O[C@H]2C[C@@]3(O)[C@@H](OC(=O)c4ccccc4)[C@@H]4[C@]5(OC(C)=O)CO[C@@H]5C[C@H](O)[C@@]4(C)C(=O)[C@H](OC(C)=O)C(=C2C)C3(C)C)[C@@H](NC(=O)c2ccccc2)c2ccccc2)O1 (some centres undefined)", "GI50": "510 nM"}

###

Tested on: UACC-62 melanoma
ASSAY INFO: NCI tumour cell line growth inhibition, 48 h; in the data active means GI50 below about 0.43 µM; inactive means the rest
Classes used: Y for active, N for inactive

{"COMPOUND": "Nc1ncnc2c1N=C(c1ccc3c(c1)OCO3)CC(c1ccc([N+](=O)[O-])cc1)N2 (stereo not given)", "CLASS LABEL": "N"}
{"COMPOUND": "CSC1=C(N)C(=O)c2[nH]cc(CO)c2C1=N", "CLASS LABEL": "Y"}
{"COMPOUND": "C=C(C)[C@@H]1CC[C@]2(C(=O)N[C@H](CO)Cc3ccccc3)CC[C@]3(C)[C@H](CC[C@@H]4[C@@]5(C)CCCNC(C)(C)[C@@H]5CC[C@]43C)[C@@H]12", "CLASS LABEL": "N"}
{"COMPOUND": "CCCCOC(=O)N1CCN(/[N+]([O-])=N/Oc2ccc([N+](=O)[O-])cc2[N+](=O)[O-])CC1", "CLASS LABEL": "N"}
{"COMPOUND": "COc1ccc2c(CN3CCCC[C@H]3C(=O)O)cc3cc4c(cc3c2c1)OCO4", "CLASS LABEL": "N"}
{"COMPOUND": "COc1ccc2c(c1)NC1=C(C(=O)OC1)C2c1cc(OC)c2c(c1)OCO2 (stereo not given)", "CLASS LABEL": "Y"}
{"COMPOUND": "COc1cc2nc(N3CCCC3)nc(NCc3ccccc3)c2cc1OC", "CLASS LABEL": "N"}
{"COMPOUND": "Cc1ccc(S(=O)(=O)c2c(COC(=O)c3cccc(C)c3)c(-c3ccccc3)nn2C)cc1", "CLASS LABEL": "N"}
{"COMPOUND": "NCCCC[C@@H]1NC(=O)[C@H]2CCCN2C(=O)[C@H](Cc2ccccc2)CNC(=O)[C@H](Cc2ccccc2)NC1=O", "CLASS LABEL": "N"}
{"COMPOUND": "CC1=C(C(=O)Nc2ccc3n[nH]c(C)c3c2)C(c2ccc(C(F)(F)F)cc2)CC(=O)N1 (stereo not given)", "CLASS LABEL": "N"}

###

Test system: HCT-116 colon
ASSAY INFO: NCI tumour cell line growth inhibition, 48 h; in the data active = GI50 below about 0.43 µM; inactive = the rest
Classes used: 1.0 = active, 0.0 = inactive

{"MOLECULE": "Cc1ccccc1OCC(O)CN1CCN(c2ccc(Cl)cc2)CC1 (stereo not drawn)", "CLASS LABEL": 0.0}
{"MOLECULE": "COc1ccc(C/C(C)=C(/c2ccc(OCCN3CCCCC3)cc2)c2ccc(OC(=O)NCc3ccccc3)cc2)cc1", "CLASS LABEL": 1.0}
{"MOLECULE": "C[C@@]12CCC(=O)c3coc(c31)C(=O)c1cc3c(cc12)C(=O)C=CC3=O", "CLASS LABEL": 0.0}

###

Tested on: A498 renal
ASSAY INFO: NCI tumour cell line growth inhibition, 48 h
Note to self: values exactly at 30 µM are Satisfied. So TGI at or above 30 µM is Satisfied, below is Not satisfied.

{"COMPOUND": "O=C1CCCCCCCCCCC1CN1CCCC1 (stereo unspecified)", "CLASS LABEL": "Satisfied"}
{"COMPOUND": "C=C[C@@H](C)[C@H](NS(=O)(=O)c1ccc(C)cc1)C(=O)OCC", "CLASS LABEL": "Satisfied"}
{"COMPOUND": "CSCSSC", "CLASS LABEL": "Satisfied"}
{"COMPOUND": "CN(C)c1ccc(/C(F)=C(F)/C(F)=C(F)/C(F)=C(\\F)c2ccc(Br)cc2)cc1", "CLASS LABEL": "Satisfied"}
{"COMPOUND": "Cc1cc(NC(=O)NC(=O)c2ccccc2NC(=O)C(C)N)ccc1Oc1ncc(Br)cn1 (stereo unspecified)", "CLASS LABEL": "Not satisfied"}
{"COMPOUND": "COc1cc([C@@H]2c3cc4c(cc3[C@@H](c3c(O)cc(O)c5c3O[C@H](c3ccc(O)c(O)c3)[C@@H](O)C5)[C@H]3COC(=O)[C@H]23)OCO4)cc(OC)c1OC", "CLASS LABEL": "Not satisfied"}
{"COMPOUND": "C/C(=N/NC(=S)N1CCCCC1)c1ccccc1O", "CLASS LABEL": "Satisfied"}
{"COMPOUND": "Cc1cc2c(C(C)C)c(O)c(O)cc2c(O)c1-c1c(C)cc2c(C(C)C)c(O)c(O)cc2c1O", "CLASS LABEL": "Satisfied"}
{"COMPOUND": "COc1cc2ccc(=O)oc2cc1O", "CLASS LABEL": "Satisfied"}
{"COMPOUND": "CC(=O)OCC1OC(SC2=N/C(=C\\c3ccc(Br)s3)C(=O)N2CN2CCOCC2)C(OC(C)=O)C(OC(C)=O)C1OC(C)=O (stereo unspecified)", "CLASS LABEL": "Satisfied"}
{"COMPOUND": "COc1ccc2c(c1)C(=O)c1ccc(OC)cc1C2=S", "CLASS LABEL": "Satisfied"}

###

Item-by-item account of TGI
System: MOLT-4 leukemia
ASSAY INFO: NCI tumour cell line growth inhibition, 48 h

{"MOLECULE": "O=C(N/N=C/C=C/c1ccc([N+](=O)[O-])o1)c1cc2ccccc2cc1O", "TGI": "7.3 µM"}
{"MOLECULE": "NC(=O)CN(CC(N)=O)C(N)=O", "TGI": "> 100 µM"}
{"MOLECULE": "CC1=C(c2cccc(O)c2)[C@H](c2ccc(OCCN3CC(CF)C3)cc2)Oc2ccc(O)cc21", "TGI": "16 µM"}
{"MOLECULE": "CSc1nnc(CCC(=O)Nc2c(C)cccc2C)o1", "TGI": "> 100 µM"}
{"MOLECULE": "O=C(O)CC[C@H](NC(=O)c1ccc(-n2nc3ccc(O)cc3nc2=O)cc1)C(=O)O", "TGI": "> 100 µM"}
{"MOLECULE": "CCCC(=O)NC(Nc1ccc(S(=O)(=O)Nc2cc(C)on2)cc1)(C(=O)OCC)C(F)(F)F (stereo not drawn)", "TGI": "> 100 µM"}
{"MOLECULE": "Cc1cc([N+](=O)[O-])c(NS(=O)(=O)c2cccc(C(=O)O)c2)cc1-c1cccnc1", "TGI": "> 100 µM"}
{"MOLECULE": "CC(=O)OCC1OC(SC2=N/C(=C\\c3ccc(Br)s3)C(=O)N2CN2CCOCC2)C(OC(C)=O)C(OC(C)=O)C1OC(C)=O (stereo not drawn)", "TGI": "52.8 µM"}
{"MOLECULE": "CSCSSC", "TGI": "90.3 µM"}
{"MOLECULE": "O=[N+]([O-])c1ccc2sc(C=Nc3cnccn3)cc2c1", "TGI": "34.3 µM"}
{"MOLECULE": "COc1ccc2c(CN3CCCC[C@H]3C(=O)O)cc3cc4c(cc3c2c1)OCO4", "TGI": "2.3 µM"}
{"MOLECULE": "CCOC(=O)c1nc2ccc(C(F)(F)F)cc2nc1Oc1cc(OC)c(OC)c(OC)c1", "TGI": "> 100 µM"}
{"MOLECULE": "Cc1cc(S(=O)(=O)N/C(=C(\\C#N)C(=O)c2ccc(Cl)cc2)[n+]2ccc(N(C)C)cc2)c([S-])cc1Cl", "TGI": "> 100 µM"}
{"MOLECULE": "O=S(=O)(c1ccc(NC2=NC(c3ccc(O)cc3)(c3ccccc3O)c3ccccc32)cc1)c1ccc(NC2=NC(c3ccc(O)cc3)(c3ccccc3O)c3ccccc32)cc1 (stereo not drawn)", "TGI": "60.1 µM"}
{"MOLECULE": "C/C(O)=C(/C=N/C(=S)Nc1ccc(S(N)(=O)=O)cc1)C(=O)Nc1ccccc1C", "TGI": "> 100 µM"}
{"MOLECULE": "CC(C)CNc1nc2ncnc(N)c2[nH]1", "TGI": "> 100 µM"}
{"MOLECULE": "Cn1ncnc1[C@H]1c2n[nH]c(=O)c3cc(F)cc(c23)N[C@@H]1c1ccc(F)cc1", "TGI": "> 100 µM"}
{"MOLECULE": "COC(OC)[C@@H]1OC[C@H](n2cnc3c(N)ncnc32)[C@H]1O", "TGI": "> 100 µM"}
{"MOLECULE": "CCCCCCCC/C=C\\CCCCCCC/C=C1\\C[C@](/C=C/C(=O)OC)(CO)OC1=O", "TGI": "10.6 µM"}
{"MOLECULE": "c1cncc(C2N3CCCCC3[C@@H]3c4[nH]c5ccccc5c4CCN23)c1 (stereo partly drawn)", "TGI": "> 100 µM"}
{"MOLECULE": "O=c1cc(N2CCCC2)[nH]c(=O)n1Cc1ccccc1", "TGI": "> 100 µM"}
{"MOLECULE": "CCCCOC(=O)C(NC(C(=O)OCCCC)c1cc(C(C)(C)C)c(O)c(C(C)(C)C)c1)c1cc(C(C)(C)C)c(O)c(C(C)(C)C)c1 (stereo not drawn)", "TGI": "> 100 µM"}
{"MOLECULE": "N#CC1(C#N)NC(c2cccs2)C(C#N)(C#N)NC1c1cccs1 (stereo not drawn)", "TGI": "60.2 µM"}
{"MOLECULE": "C[C@H](NC(=O)C(Cc1ccccc1)(Cc1ccc(O)cn1)NC(=O)c1ccccc1)c1ccccc1 (stereo partly drawn)", "TGI": "84.9 µM"}
{"MOLECULE": "COc1cc2ccnc3c2c(c1OC)-c1coc(SC)c1-3", "TGI": "> 100 µM"}
{"MOLECULE": "NS(=O)(=O)c1ccc(/C=C/c2ccc(F)cc2)cc1", "TGI": "> 100 µM"}
{"MOLECULE": "O=C(c1ccc(Cl)cc1Cl)C1[C@H]2C(=O)N(c3ccc(Cc4ccc(N5C(=O)[C@@H]6ON(c7ccccc7)C(C(=O)c7ccc(Cl)cc7Cl)[C@@H]6C5=O)cc4)cc3)C(=O)[C@H]2ON1c1ccccc1 (stereo partly drawn)", "TGI": "> 50 µM"}
{"MOLECULE": "CC1C(=O)N(c2ccccc2)NC12CCCc1ccccc12 (stereo not drawn)", "TGI": "> 100 µM"}
{"MOLECULE": "COc1ccc(N2C(=O)CC(=O)N(C(=O)COc3ccc(OCC(=O)N4C(=O)CC(=O)N(c5ccc(OC)cc5)C4=S)cc3)C2=S)cc1", "TGI": "> 100 µM"}
{"MOLECULE": "C[C@@H]1[C@H](C)N1CC(O)Cn1ccnc1[N+](=O)[O-] (stereo partly drawn)", "TGI": "> 100 µM"}
{"MOLECULE": "CC(C)CCCC(C)[C@H]1CCC2[C@@H]3CCC4Cc5nc6c(nc5C[C@]4(C)C3CC[C@@]21C)CC1CC[C@@H]2C(CC[C@@]3(C)C2CC[C@@H]3C(C)CCCC(C)C)[C@@]1(C)C6 (stereo partly drawn)", "TGI": "> 100 µM"}
{"MOLECULE": "COc1ccc2c(c1)c(CC(=O)[Se]C)c(C)n2C(=O)c1ccc(Cl)cc1", "TGI": "> 1 µM"}
{"MOLECULE": "COc1ccc(CCN2CC=Cn3c2nc2ccccc2c3=O)cc1", "TGI": "> 100 µM"}
{"MOLECULE": "NCCCN(CCCN(C(=O)Nc1ccccc1)c1ccccc1)C(=O)Nc1ccccc1", "TGI": "> 100 µM"}
{"MOLECULE": "Nc1ccc(S(=O)(=O)c2ccc(NCN3C(=O)NC(=O)C(=O)C3=O)cc2)cc1", "TGI": "> 100 µM"}
{"MOLECULE": "CCNCCCn1c2c(c3ccc(Cl)cc3c1=O)C(=O)c1cc(OC)cnc1-2", "TGI": "1.62 µM"}
{"MOLECULE": "Cc1ccc([S@](=O)c2occc2C=O)cc1", "TGI": "4.16 µM"}
{"MOLECULE": "O=c1cnn(C2OC(CO)C(O)C2O)c(=S)[nH]1 (stereo not drawn)", "TGI": "> 30.7 µM"}
